Sourced from PubChem BioAssay (NCI)

experiment: NCI Yeast Anticancer Drug Screen. Data for the rad18 strain (AID 177); conditions: S. cerevisiae rad18 mutant growth inhibition; at 3.7 µM; active compounds read high
Compounds without any hit were thinned out: in the full panel of roughly 79,000, 15% have a hit.
The reader will find reported growth inhibition values listed item by item below.
Supply the numeric figure in %, leaving out any unit text.

Consider the worked cases shown below.
CC[C@@]1(O)C[C@H](OC2CC(N(C)C)C(O)C(C)O2)c2c(O)c3c(c(O)c2[C@H]1OC1CC(N(C)C)C(O)C(C)O1)C(=O)c1cccc(O)c1C3=O (stereo not given in full) ... 12
O=C1C=CC(=O)C1(Br)Br ... 40
CCCCCCCCCCCCCCCCP(=O)(O)OCC(N)C(=O)O (stereo not given) ... -8
CCN(CCCl)CCCCNc1c2ccccc2nc2ccc(OC)cc12 ... 80

Ask | Quick one: growth inhibition for Nc1ccccc1C(=O)OCCc1ccccc1 ?
Reply | -22

Ask | Try this compound too: BrCC[N+]12CC[N+](CCBr)(CC1)C2
Reply | 25

Ask | Try this compound too: CCOC(=O)C1C2c3ccccc3C(c3ccccc32)C1C(=O)OCC (stereo not given)
Reply | 8

Ask | Try this compound too: O=C1c2ccccc2C(=O)C(Cl)C1Cl (stereo not given)
Reply | 10

Ask | Try this compound too: CC1CCCN(CCc2ccccc2)CC1 (stereo not given)
Reply | 7

Ask | Try this compound too: CC1CCC2(NC1)OC1CC3C4CCC5CC(OC6OC(CO)C(OC7OC(CO)C(O)C(OC8OCC(O)C(O)C8O)C7OC7OC(CO)C(O)C(O)C7O)C(O)C6O)CCC5(C)C4CCC3(C)C1C2C (stereo not given)
Reply | -19

Ask | Try this compound too: NCCc1ccc(OCc2ccccc2)c(OCc2ccccc2)c1
Reply | 15

Ask | Try this compound too: COC(=O)C1C2c3ccccc3C(c3ccccc32)C1C(=O)OC (stereo not given)
Reply | 2

Ask | Try this compound too: CC1=C(CO)C2=C(C)C3(CC3)[C@@](C)(O)C(=O)C2=C1
Reply | 82

Ask | Try this compound too: c1ccc2cc3n[se]nc3cc2c1
Reply | 13

Ask | Try this compound too: CCC(=O)OC1CCn2c1nc1c2C(=O)C(C)=C(N2CC2)C1=O (stereo not given)
Reply | 75

Ask | Try this compound too: CCCCCCCCCCCCCCCCP(=O)(O)OP(=O)(O)OCC1OC(n2ccc(N)nc2=O)C(O)C1O (stereo not given)
Reply | -2

Ask | Try this compound too: C/C(CCl)=N/NC1=NC(c2ccccc2Cl)P(=O)(NCCCNP2(=O)SC(N/N=C(/C)CCl)=NC2c2ccccc2Cl)S1 (stereo not given)
Reply | 10

Ask | Try this compound too: O=S(=O)(O)c1ccc(Cl)cc1.[Cd]
Reply | 8
